This collection of values is drawn from patent US11957669B2.

Assay: Solubility of the compound of Formula (1) in various solvents (excess compound, shaking, HPLC)
Assay type: physicochemical
Conditions: organic solvent or mixture, thermodynamic from solid; in Triacetin; 25° C., 24 hours
Method: An excess amount of the compound of Formula (1) was added to 1 mL of each solvent described in Table 1 below and stirred for 24 hours at 25° C. while shaking at 200 rpm (Shaking incubator, SI 600R, JEIO TECH, Korea). Thereafter, a centrifugation was performed at 10,000 rpm for 10 minutes, and the supernatant was filtered using a membrane filter (0.2 μm), then diluted moderately with methanol and analyzed by HPLC.
parameter: solubility at 24 h (mg/mL)
Reply with just the number (in mg/mL).

Req: Find the recorded solubility at 24 h belonging to CCCc1nc(C(F)(F)F)ccc1/C=C/C(=O)N[C@H](C)c1cc(F)c(NS(C)(=O)=O)c(F)c1 [compound of Formula (1)] and report it.
Resp: 56.5
